// data source = PubChem BioAssay (NCI)

growth for assorted compounds
- Tested on: SF-295 CNS
- Method Description: NCI-60 one-dose screen, 48 h (100 = growth as untreated, 0 = no growth, -100 = all killed)
- Recorded Conditions: 10 µM unless noted
- Method: Cells are grown in 96 well plates and exposed to the test compound for 48 hours. Compounds are tested at a single concentration, which is 10^-5 M for most compounds. The reported endpoint is percent growth (GI% or GIPRCNT), where numbers from 0 - 100% represent growth inhibition, and numbers from -100% - 0 represent cell death. For example, a value of 40 represents 60% growth inhibition. A value of 0 means no net growth occurred over the course of the experiment. […]
Compounds without any hit were thinned out: in the full panel of roughly 83,000, 20% have a hit.
Express it in %; write the number only.

Here are 4 compounds together with their reported answers.
>  <Compound>
COc1cc2c(cc1-c1c(C)noc1C)ncc1nc(-c3ccccn3)n([C@H](C)COC(F)F)c12

>  <System Under Test>
SF-295 CNS

>  <growth [%]>
60.4

$$$$
>  <Compound>
COc1cc2nc(N3CCCC3)nc(Nc3ccccc3)c2cc1OC

>  <System Under Test>
SF-295 CNS

>  <growth [%]>
-63.2

$$$$
>  <Compound>
Oc1ccc(N=Cc2ccccc2O)cc1

>  <System Under Test>
SF-295 CNS

>  <growth [%]>
107

$$$$
>  <Compound>
COc1cc2c(cc1-c1c(C)noc1C)ncc1nc(C3CCCC3)n([C@H](C)COC(F)F)c12

>  <System Under Test>
SF-295 CNS

>  <growth [%]>
50.3

$$$$

Item: `O=S(=O)(Nc1ccc(OC(F)F)cc1)c1ccc(-c2cnc(C3CC3)o2)cc1` | growth: 53.3

Item: `N#Cc1c(N)n(CCNC(=O)c2ccccc2)c2nc3ccccc3nc12` | growth: 121

Item: `O=Nc1c(O)c(Cl)cc2ccccc12` | growth: 111

Item: `CCCCN(CCCC)CCCn1c(-c2ccccc2)ccc1-c1ccccc1` | growth: 60

Item: `Cc1ccc(OC(=O)c2ccc(Cl)cc2)cc1` | growth: 93.3

Item: CN(CCCCCl)P(=O)(OCc1ccc([N+](=O)[O-])o1)C(F)(F)c1ccc(CC(=O)NC[C@@H](O)/C=C\[C@@H](O)[C@H](CO)Cc2ccccc2)cc1 (stereo not given in full) | growth: 98.3
